The reported measurements were obtained from patent US20110311990A1.

The following compounds are shown together with reported Cross-reactivity (% XR) values.
# Tested on: tetranor-PGEM EIA Antiserum
# test: Cross-reactivity testing of tetranor-PGEM antibody (polyclonal antiserum) by competitive EIA
# Assay type: binding, rabbit
# assayContext: Specificity of the tetranor-PGEM EIA Antiserum; Example 4 kit performance characteristics
measuredMetric: Cross-reactivity (% XR) (%)

compound="O=C(O)CCCCC(=O)CC[C@@H]1[C@@H](CCC(=O)O)[C@@H](O)C[C@H]1O [tetranor-PGFM]" quantityunit=% observedvalue=7.8
compound="O=C(O)CCCCC(=O)CC[C@H]1[C@H](O)CC(=O)[C@@H]1CCC(=O)O [tetranor-PGEM]" quantityunit=% observedvalue=100
compound="O=C(O)CCCCC(=O)CC[C@H]1C(=O)C[C@H](O)[C@@H]1CCC(=O)O [tetranor-PGDM]" quantityunit=% observedvalue=1.5
compound="O=C(O)CCCCC(=O)CC[C@H]1C(=O)C=C[C@@H]1CCC(=O)O [tetranor-PGJM]" quantityunit=% observedvalue=27.4
